B1: mRNA-splicing (parent)
chain: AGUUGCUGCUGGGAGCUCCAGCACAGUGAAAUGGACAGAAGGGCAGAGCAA

# Variants of: B1
# procedure.summary: exon inclusion enrichment index; higher = more inclusion; WT1 exon 5 minigene, HEK293
Criterion met means recorded exon inclusion enrichment index is 0.09 or above; Criterion not met means it is below 0.09.

The following variants have reported results that may help.
1. AGUUAGGCAUGGGAGCUCCAGCACAGUGAAAUGGACAGAAGGGCAGAGCAA ... Criterion not met
2. AGUUGAAGAAGGGAGCUCCAGCACAGUGAAAUGGACAGAAGGGGGGAGCAA ... Criterion met
3. AGUUACCACCGGGAGCUCCAGCACAGUGAAAUGGACAGAAGGGCAGCUCAA ... Criterion met
4. AGUUGCUGCUGGGAGCUCCAGCACAGUGAAAUGGACAGAAGGACAGAGCAA ... Criterion met
5. AGUUGACGACGGGAGCUCCAGCACAGUGACUUGGACAGAAGGGCAGAGCAA ... Criterion met
6. AGUUACCACCGGGAGCUCCAGGCCAGUGAAAUGGACAGAAGGGCAGAGCAA ... Criterion met

Q: Given the entry "AGUUCGCGCCGGGAGCUCCAGCACAGUGAAAUGGAUCGAAGGGCAGAGCAA" , answer whether its exon inclusion enrichment index meets or surpasses 0.09.
Result: Criterion met

Q: Lookup "AGUUUCUUUUGGGAGCUCCAGCACAGUGACUUGGACAGAAGGGCAGAGCAA"
Result: Criterion met

Q: Lookup "AGUUGACGACGGGAGCUCCAGCACAGUGAAAUGGACGAAAGGGCAGAGCAA"
Result: Criterion met

Q: Lookup "AGUUGCUGCUGGGAGCUCCAUUACAGUGAAAUGGACAGAAGGGCAGAGCAA"
Result: Criterion met

Q: Lookup "AGUUGACGAUAGGAGCUCCAGCACAGUGAAAUGGACAGAAGGGCAGAGCAA"
Result: Criterion met

Q: Lookup "AGUUAUAUAUGGGAGCUCCAGCACAGUGAAAUGGACAGAAGGGAGGAGCAA"
Result: Criterion met

Q: Lookup "AGUUGAAGAAGGGAGCUCCAGCACAGUGAAAUGGACAGAAGGGUCGAGCAA"
Result: Criterion met

Q: Lookup "AGUUAGGGAUGGGAGCUCCAUGACAGUGAAAUGGACAGAAGGGCAGAGCAA"
Result: Criterion not met
